Test system: T24
protocol notes: Soft agar colony formation assay, MTT
Type: cell-based
condition notes: Homo sapiens, T-24, 3 independent experiments
endpoint: pIC50
Reminder that pIC50 means the negative base-10 logarithm of the concentration expressed in mol/L.

So what's the measured pIC50 for this one? C[n+]1cc2c3c(ccc2c2ccc4cc5c(cc4c21)OCO5)OCO3.[Cl-] [Sanguinarine chloride]
5.99
